system: Klebsiella pneumoniae; test: Antibacterial activity against Klebsiella ozaenae; assay type: functional; conditions: subsp. ozaenae
measurement.type: MIC (µg/mL)
Reply with just the number (in µg/mL).

Q. Write down MIC measured for item CCn1cc(C(=O)O)c(=O)c2cc(F)c(N3CCNCC3)cc21
A. 0.0381

Q. Write down MIC measured for item Cc1cn(C2C=CC(COC(=O)CN3CCN(c4cc5c(cc4F)c(=O)c(C(=O)O)cn5C4CC4)CC3)O2)c(=O)[nH]c1=O (stereo unspecified)
A. 1.22

Q. Write down MIC measured for item Cc1cn(C2C=CC(COC(=O)CNNC(=O)c3ccncc3)O2)c(=O)[nH]c1=O (stereo unspecified)
A. 9.76

Q. Write down MIC measured for item Cc1cn(C2C=CC(COC(=O)CNC(=O)c3ccncn3)O2)c(=O)[nH]c1=O (stereo unspecified)
A. 1250

Q. Write down MIC measured for item CCn1cc(C(=O)O)c(=O)c2cc(F)c(N3CCN(CC(=O)OCC4C=CC(n5cc(C)c(=O)[nH]c5=O)O4)CC3)cc21 (stereo unspecified)
A. 1.22

Q. Write down MIC measured for item O=C(O)c1cn(C2CC2)c2cc(N3CCNCC3)c(F)cc2c1=O
A. 0.0381

----------
tested on: Edwardsiella tarda; test: Antibacterial activity against Edwardsiella tarda; type: functional
Kindly supply the reported MIC values for the records listed here.
Reply with just the number (in µg/mL).

Q. Write down MIC measured for item O=C(O)c1cn(C2CC2)c2cc(N3CCNCC3)c(F)cc2c1=O
A. 0.0095

Q. Write down MIC measured for item Cc1cn(C2C=CC(COC(=O)CNC(=O)c3ccncn3)O2)c(=O)[nH]c1=O (stereo unspecified)
A. 1250

Q. Write down MIC measured for item Cc1cn(C2C=CC(COC(=O)CNNC(=O)c3ccncc3)O2)c(=O)[nH]c1=O (stereo unspecified)
A. 156

Q. Write down MIC measured for item CCn1cc(C(=O)O)c(=O)c2cc(F)c(N3CCNCC3)cc21
A. 0.0381

Q. Write down MIC measured for item CCn1cc(C(=O)O)c(=O)c2cc(F)c(N3CCN(CC(=O)OCC4C=CC(n5cc(C)c(=O)[nH]c5=O)O4)CC3)cc21 (stereo unspecified)
A. 9.76

Q. Write down MIC measured for item Cc1cn(C2C=CC(COC(=O)CN3CCN(c4cc5c(cc4F)c(=O)c(C(=O)O)cn5C4CC4)CC3)O2)c(=O)[nH]c1=O (stereo unspecified)
A. 4.88

----------
tested on: Vibrio cholerae; assay: Antibacterial activity against Vibrio cholerae 0139; assay type: functional
Note to self: MIC under 200 µg/mL means condition met, ties and anything higher get condition not met.

Q. Just wondering, is MIC of CCn1cc(C(=O)O)c(=O)c2cc(F)c(N3CCNCC3)cc21 [NORFLOXACIN] below 200 µg/mL?
A. condition met

Q. Just wondering, is MIC of Cc1cn(C2C=CC(COC(=O)CN3CCN(c4cc5c(cc4F)c(=O)c(C(=O)O)cn5C4CC4)CC3)O2)c(=O)[nH]c1=O (stereo unspecified) below 200 µg/mL?
A. condition met

Q. Just wondering, is MIC of Cc1cn(C2C=CC(COC(=O)CNC(=O)c3ccncn3)O2)c(=O)[nH]c1=O (stereo unspecified) below 200 µg/mL?
A. condition not met

Q. Just wondering, is MIC of O=C(O)c1cn(C2CC2)c2cc(N3CCNCC3)c(F)cc2c1=O [CIPROFLOXACIN] below 200 µg/mL?
A. condition met

Q. Just wondering, is MIC of Cc1cn(C2C=CC(COC(=O)CNNC(=O)c3ccncc3)O2)c(=O)[nH]c1=O (stereo unspecified) below 200 µg/mL?
A. condition met

Q. Just wondering, is MIC of CCn1cc(C(=O)O)c(=O)c2cc(F)c(N3CCN(CC(=O)OCC4C=CC(n5cc(C)c(=O)[nH]c5=O)O4)CC3)cc21 (stereo unspecified) below 200 µg/mL?
A. condition met
